- Tested on: BT-20
- PROTOCOL_DESCRIPTION: relative cell number vs DMSO control (72 h) (% of DMSO); higher = less growth inhibition (more cells)
- CONDITIONS_USED: sgRNA knockout: sgNT, 1000 nM
Listing of recorded relative cell number by entry.

COMPOUND	relative cell number
COc1cc2nc(N3CCCN(C)CC3)nc(NC3CCN(Cc4ccccc4)CC3)c2cc1OC	84.4
Cc1ccc(F)c(NC(=O)Nc2ccc(-c3cccc4[nH]nc(N)c34)cc2)c1 [Linifanib]	89.1
O=c1cc(-c2cccc3c2Sc2ccccc2S3)oc(N2CCOCC2)c1	111
CC(C)(C)c1nc(-c2cccc(NS(=O)(=O)c3c(F)cccc3F)c2F)c(-c2ccnc(N)n2)s1 [Dabrafenib]	109
CC(C)n1cnc2c(NCCc3ccc(O)cc3)nc(-c3csc4ccccc34)nc21 [StemRegenin1]	94.3
CC(=O)Nc1nc(C)c(-c2ccc(Cl)c(S(=O)(=O)NCCO)c2)s1 [PIK93]	98.7
CCn1c(=O)c2c(nc(/C=C/c3ccc(OC)c(OC)c3)n2C)n(CC)c1=O [Istradefylline]	94.8
C[C@@H](Oc1cc(-n2cnc3ccc(CN4CCN(C)CC4)cc32)sc1C(N)=O)c1ccccc1C(F)(F)F	31.8
O=C1c2c(O)ccc(O)c2C(=O)c2c(NCCNCCO)ccc(NCCNCCO)c21 [Mitoxantrone]	19.5
CC(C)[C@]12O[C@H]1[C@@H]1O[C@]13[C@]1(O[C@H]1C[C@H]1C4=C(CC[C@@]13C)C(=O)OC4)[C@@H]2O [Triptolide]	20.8
CCC(C)SSc1ncc[nH]1 (configuration not stated) [PX12]	100
Cc1ccc2c(c1)C(=O)C1(O)CCN(c3ccccc3)C1=N2 (configuration not stated) [Blebbistatin]	130
COc1cccc2c1C(=O)c1c(O)c3c(c(O)c1C2=O)C[C@@](O)(C(=O)CO)C[C@@H]3O[C@H]1C[C@H](N)[C@H](O)[C@H](C)O1 [Doxorubicin]	29.9
Clc1ccc(C2(c3ccc(-c4cn[nH]c4)cc3)CCNCC2)cc1 [AT7867]	77.8
CC(=O)c1c(C)c2cnc(Nc3ccc(N4CCNCC4)cn3)nc2n(C2CCCC2)c1=O [Palbociclib]	45.8
CCOC(=O)CCNc1cc(N2CCc3ccccc3CC2)nc(-c2ccccn2)n1 [GSKJ4]	122
CNC(=O)c1cc(Oc2ccc(NC(=O)Nc3ccc(Cl)c(C(F)(F)F)c3)cc2)ccn1 [Sorafenib]	108
Nc1ncn([C@H]2C[C@H](O)[C@@H](CO)O2)c(=O)n1 [Decitabine]	75.7
CN(C)CC[C@H](CSc1ccccc1)Nc1ccc(S(=O)(=O)NC(=O)c2ccc(N3CCN(Cc4ccccc4-c4ccc(Cl)cc4)CC3)cc2)cc1[N+](=O)[O-] [ABT737]	94.8
CC(C)C[C@H](NC(=O)[C@H](CCc1ccccc1)NC(=O)CN1CCOCC1)C(=O)N[C@@H](Cc1ccccc1)C(=O)N[C@@H](CC(C)C)C(=O)[C@@]1(C)CO1 [Carfilzomib]	14.6
O=C(c1cc(Cc2n[nH]c(=O)c3ccccc23)ccc1F)N1CCN(C(=O)C2CC2)CC1 [Olaparib]	73.2
Cc1cc2c(C(C)C)c(O)c(O)c(C=O)c2c(O)c1-c1c(C)cc2c(C(C)C)c(O)c(O)c(C=O)c2c1O [Gossypol]	113
CCN1CCN(c2ccc(Nc3cc(N(C)C(=O)Nc4c(Cl)c(OC)cc(OC)c4Cl)ncn3)cc2)CC1 [BGJ398]	88.5
C=C1C(=O)O[C@H]2[C@H]1CC/C(C)=C/CC[C@@]1(C)O[C@@H]21 [Parthenolide]	93.2
C[C@]12CC[C@H](O)CC1=CC[C@@H]1[C@@H]2CC[C@]2(C)C(c3cccnc3)=CC[C@@H]12 [Abiraterone]	116
CN(C)/N=N/c1[nH]cnc1C(N)=O [Dacarbazine]	108
COc1cc2c(Oc3ccc4[nH]c(C)cc4c3F)ncnc2cc1OCCCN1CCCC1 [Cediranib]	104
Cc1cnc(-c2cnc(NCCNc3ccc(C#N)cn3)nc2-c2ccc(Cl)cc2Cl)[nH]1	73.6
CC(C)(C)c1cnc(CSc2cnc(NC(=O)C3CCNCC3)s2)o1 [SNS032]	19.7
c1ccc2c(Oc3nc(Nc4ccc(N5CCOCC5)cc4)c4ncn(C5CCCCC5)c4n3)cccc2c1 [Purmorphamine]	85.4
Cc1ccc(S(=O)(=O)OCC(=O)Nc2ccc(C(=O)O)c(O)c2)cc1	108
COC(=O)[C@]12CCC(C)(C)C[C@H]1[C@H]1C(=O)C=C3[C@@]4(C)C=C(C#N)C(=O)C(C)(C)[C@@H]4CC[C@@]3(C)[C@]1(C)CC2 [BardoxoloneMethyl]	16.2
